Hi there, I'd appreciate the recorded cytotoxicity at 70.5 h for every entry that follows.
# Test: Human HepG2 cell viability assay in 384 well format
# Type: toxicity, cell-based
# Parameters: dose 125 nL, time 70.5 hour; concentration not given beside the values
# Details: HepG2 cells, read-out: Inhibition
Provide the reading as a plain figure in %.

INPUT: Returns the measured cytotoxicity at 70.5 h for the input compound. Input: Cc1ccc(CNC(=O)N2CCN(C(C)c3cccnc3)CC2)cn1 (stereo unspecified)
OUTPUT: -3.85

INPUT: Report cytotoxicity at 70.5 h for CC(=O)NC[C@H]1C[C@@H]2CCN1C[C@@H]2c1cc(-c2cccs2)nn1C please.
OUTPUT: -10.2

INPUT: cytotoxicity at 70.5 h for CS(=O)(=O)CCC(=O)NC(c1ccc(F)cc1)C(F)(F)F (stereo unspecified) ?
OUTPUT: -1.59

INPUT: Which cytotoxicity at 70.5 h value is on record for Cc1cc(C(=O)NS(=O)(=O)Cc2ccon2)c(C)o1 ?
OUTPUT: -3.93

INPUT: Need cytotoxicity at 70.5 h, item CC(COc1ccc(F)cc1F)NC(=O)NCCN1CCOCC1 (stereo unspecified)
OUTPUT: -16

INPUT: Requested read-out: cytotoxicity at 70.5 h. Entry: COC(=O)NCCC(=O)NCC1(c2cccc(Cl)c2)CC1
OUTPUT: -6.53
